Experimental system: UniProtKB P48736
Sequence (P48736 whole entry, species assumed): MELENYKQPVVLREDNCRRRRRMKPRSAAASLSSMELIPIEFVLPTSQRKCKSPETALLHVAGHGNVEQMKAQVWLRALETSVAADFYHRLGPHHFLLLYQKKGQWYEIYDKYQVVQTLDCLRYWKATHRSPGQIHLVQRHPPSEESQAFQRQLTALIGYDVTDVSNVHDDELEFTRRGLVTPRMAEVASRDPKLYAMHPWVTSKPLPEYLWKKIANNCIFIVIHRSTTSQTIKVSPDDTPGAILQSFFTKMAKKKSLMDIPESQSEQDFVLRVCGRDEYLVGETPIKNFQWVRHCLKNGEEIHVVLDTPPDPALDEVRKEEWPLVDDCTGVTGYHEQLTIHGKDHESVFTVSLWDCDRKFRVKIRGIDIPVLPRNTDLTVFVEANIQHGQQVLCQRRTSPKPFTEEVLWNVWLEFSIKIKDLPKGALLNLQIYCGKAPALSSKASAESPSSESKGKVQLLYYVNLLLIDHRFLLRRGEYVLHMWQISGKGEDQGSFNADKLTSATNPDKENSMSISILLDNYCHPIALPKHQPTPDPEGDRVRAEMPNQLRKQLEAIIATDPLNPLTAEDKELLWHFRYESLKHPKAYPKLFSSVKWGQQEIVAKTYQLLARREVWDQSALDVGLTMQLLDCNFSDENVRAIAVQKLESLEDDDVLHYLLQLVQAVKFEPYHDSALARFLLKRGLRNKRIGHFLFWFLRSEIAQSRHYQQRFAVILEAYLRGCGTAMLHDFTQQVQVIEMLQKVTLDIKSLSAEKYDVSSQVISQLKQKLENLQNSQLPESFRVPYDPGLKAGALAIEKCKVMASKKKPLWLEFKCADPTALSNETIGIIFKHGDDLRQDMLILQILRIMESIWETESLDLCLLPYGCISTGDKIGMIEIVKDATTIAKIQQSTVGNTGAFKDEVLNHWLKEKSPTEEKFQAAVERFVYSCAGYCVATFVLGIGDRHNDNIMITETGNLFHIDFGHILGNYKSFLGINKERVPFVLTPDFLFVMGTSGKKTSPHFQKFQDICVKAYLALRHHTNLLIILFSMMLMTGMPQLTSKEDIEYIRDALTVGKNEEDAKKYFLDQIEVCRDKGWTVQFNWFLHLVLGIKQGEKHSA
Procedure summary: PI3K inhibition assay (33P-ATP, PI(4,5)P2 substrate), PI3K-gamma; further: 2 nM enzyme
Format: biochemical
Field: Ki. Provide a value for each of the compounds that follow.

Solved entries (count: 5):
Compound	Result value
Cc1cc(-c2cncc([S@@+](C)[O-])c2)nc2c1C(=O)N(c1cnn(CC(F)(F)F)c1)C2(C)C	< 100 nM
Cc1cc(-c2cncc(OCC(F)F)c2)nc2c1C(=O)N(c1ccn(C3CCOC3)n1)C2 (single isomer, unassigned)	< 100 nM
CO/N=C/c1cncc(-c2cc(C)c3c(n2)C(C)(C)N(c2cnn(CC(F)(F)F)c2)C3=O)c1	< 100 nM
Cc1cc(-c2cnc(C)c(OCC(F)F)c2)nc2c1C(=O)N(c1ccn(C3CCOC3)n1)C2 (single isomer, unassigned)	< 100 nM
COc1cc(-c2ccc3c(n2)CN(c2ccc(N(C)CCN(C)C)nc2)C3=O)cnc1OC	500 to 2500 nM

Give measured Ki for every item shown.
1. COc1cc(-c2ccc3c(n2)C(N2CCCN(C)CC2)N(c2cnn(CC(F)(F)F)c2)C3=O)cnc1OC (centres unmarked)
2. COc1cncc(-c2cc(C)c3c(n2)C(C)(C)N(c2ccn(C[C@H](C)O)n2)C3=O)c1
3. COc1cc(-c2ccc3c(c2)CN(c2cn[nH]c2)C3=O)cnc1OC

Result string:
1. 500 to 2500 nM
2. 100 to 490 nM
3. 100 to 490 nM
